- Tested on: baculovirus-expressed ALK (Homo sapiens)
- Construct: host or cells: baculovirus expression system
- Sequence (Q9UM73 19-1620): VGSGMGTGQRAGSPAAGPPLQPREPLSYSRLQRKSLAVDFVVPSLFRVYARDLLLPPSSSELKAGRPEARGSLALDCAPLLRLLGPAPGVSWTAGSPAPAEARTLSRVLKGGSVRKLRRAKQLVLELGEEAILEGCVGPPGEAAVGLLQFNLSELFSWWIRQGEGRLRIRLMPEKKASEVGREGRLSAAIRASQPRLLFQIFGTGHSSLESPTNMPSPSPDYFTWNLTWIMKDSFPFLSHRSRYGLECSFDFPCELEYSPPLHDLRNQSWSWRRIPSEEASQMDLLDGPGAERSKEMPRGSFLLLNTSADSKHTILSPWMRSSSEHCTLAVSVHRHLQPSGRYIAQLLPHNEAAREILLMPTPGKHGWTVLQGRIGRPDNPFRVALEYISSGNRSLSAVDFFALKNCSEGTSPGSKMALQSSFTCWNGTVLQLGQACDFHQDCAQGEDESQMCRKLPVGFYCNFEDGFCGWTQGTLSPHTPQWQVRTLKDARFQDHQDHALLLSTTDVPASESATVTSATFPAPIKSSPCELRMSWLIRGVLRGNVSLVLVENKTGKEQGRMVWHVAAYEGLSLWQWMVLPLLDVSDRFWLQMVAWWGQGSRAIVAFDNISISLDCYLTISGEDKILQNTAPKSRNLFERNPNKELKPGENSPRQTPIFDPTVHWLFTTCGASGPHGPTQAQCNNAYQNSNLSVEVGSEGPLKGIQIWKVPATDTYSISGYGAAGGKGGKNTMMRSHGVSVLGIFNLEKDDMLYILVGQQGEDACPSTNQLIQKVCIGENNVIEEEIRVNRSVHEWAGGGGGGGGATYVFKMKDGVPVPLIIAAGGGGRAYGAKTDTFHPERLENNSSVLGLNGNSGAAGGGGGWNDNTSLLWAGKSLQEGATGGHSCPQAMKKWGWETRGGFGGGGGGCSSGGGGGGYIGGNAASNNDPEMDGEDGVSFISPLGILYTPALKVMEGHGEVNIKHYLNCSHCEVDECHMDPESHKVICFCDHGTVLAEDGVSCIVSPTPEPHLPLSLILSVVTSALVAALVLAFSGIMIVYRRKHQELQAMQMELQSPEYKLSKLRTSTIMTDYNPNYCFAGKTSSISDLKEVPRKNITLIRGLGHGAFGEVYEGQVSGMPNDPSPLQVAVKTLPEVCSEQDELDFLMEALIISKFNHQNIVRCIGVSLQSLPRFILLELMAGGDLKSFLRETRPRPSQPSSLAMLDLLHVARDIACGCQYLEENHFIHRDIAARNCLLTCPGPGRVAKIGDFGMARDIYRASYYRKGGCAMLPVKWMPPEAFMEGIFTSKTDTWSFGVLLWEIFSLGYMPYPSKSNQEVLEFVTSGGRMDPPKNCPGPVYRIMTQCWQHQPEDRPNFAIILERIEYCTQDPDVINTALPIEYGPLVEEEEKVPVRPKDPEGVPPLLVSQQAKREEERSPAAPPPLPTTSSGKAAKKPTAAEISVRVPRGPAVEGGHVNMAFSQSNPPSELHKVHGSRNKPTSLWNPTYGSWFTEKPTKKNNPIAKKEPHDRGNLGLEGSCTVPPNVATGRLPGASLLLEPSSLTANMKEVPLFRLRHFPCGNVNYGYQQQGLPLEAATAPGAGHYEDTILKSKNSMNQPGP
- Test method notes: ALK Kinase Assay (ELISA-type, time-resolved fluorescence)
- Format: biochemical
- Measurement context: 1 μM ATP (Km level), 30 ng/ml ALK, 37° C., 15 minutes; read-out: ALK Activity (ALK kinase inhibition, IC50 class)
Assay readout: IC50

Recorded results for 5 compounds are shown here.
Look up and report measured IC50 (baculovirus-expressed ALK (Homo sapiens)) for the following compound: COc1cc2c(cc1Nc1ncc(Cl)c(Nc3ccccc3S(=O)(=O)N3CCC(O)C3)n1)CCN(CC(=O)N(C)C)CC2 (stereo not shown) [Example 1188]
< 100 nM

Look up and report measured IC50 (baculovirus-expressed ALK (Homo sapiens)) for the following compound: COCCN1CCc2ccc(Nc3ncc(Cl)c(N[C@H]4CC[C@H](NS(C)(=O)=O)CC4)n3)cc2CC1 [Example 1378]
100 to 1000 nM

Look up and report measured IC50 (baculovirus-expressed ALK (Homo sapiens)) for the following compound: COc1cc2c(cc1Nc1ncc(Cl)c(N[C@@H]3CCCC[C@H]3NS(C)(=O)=O)n1)CCN(C(=O)CN(C)C)CC2 [Example 1125]
< 100 nM

Look up and report measured IC50 (baculovirus-expressed ALK (Homo sapiens)) for the following compound: CCN1CCc2ccc(OC)c(Nc3ncc(Cl)c(Nc4ccc(N5CCOCC5)cc4OC)n3)c2CC1=O [Example 1133]
1000 to 10000 nM

Look up and report measured IC50 (baculovirus-expressed ALK (Homo sapiens)) for the following compound: CCN1C(=O)CCCc2ccc(Nc3ncc(Cl)c(Nc4ccccc4CCC#N)n3)cc21 [Example 1232]
100 to 1000 nM

Others:
Look up and report measured IC50 (baculovirus-expressed ALK (Homo sapiens)) for the following compound: CNC(=O)c1cccc(F)c1Nc1nc(Nc2ccc3c(c2)CNC(=O)CCN3C(C)=O)ncc1Cl [Example 1224]
< 100 nM

Look up and report measured IC50 (baculovirus-expressed ALK (Homo sapiens)) for the following compound: COc1cccnc1-c1ccccc1Nc1nc(Nc2ccc3c(c2)CCC(O)CC3)ncc1Cl (stereo not shown) [Example 1019]
100 to 1000 nM

Look up and report measured IC50 (baculovirus-expressed ALK (Homo sapiens)) for the following compound: COc1cc2c(cc1Nc1ncc(Cl)c(NC3(C(=O)OC(C)C)CCCC3)n1)CCN(CC(=O)N(C)C)CC2 [Example 1202]
100 to 1000 nM

Look up and report measured IC50 (baculovirus-expressed ALK (Homo sapiens)) for the following compound: COc1cc2c(cc1Nc1ncc(Cl)c(N[C@@H]3CCCC[C@H]3NS(C)(=O)=O)n1)CCN(C(CF)CF)CC2 [Example 1392]
< 100 nM

Look up and report measured IC50 (baculovirus-expressed ALK (Homo sapiens)) for the following compound: CCN1C(=O)[C@@H](N)CCc2c1ccc(Nc1ncc(Cl)c(N[C@H]3[C@@H](C(N)=O)[C@@H]4C=C[C@H]3C4)n1)c2OC (single isomer, unassigned) [Example 1332]
< 100 nM

Look up and report measured IC50 (baculovirus-expressed ALK (Homo sapiens)) for the following compound: COc1cc2c(cc1Nc1ncc(Cl)c(N[C@@H]3CCCC[C@H]3NS(C)(=O)=O)n1)CCC(NCC(F)F)CC2 (single isomer, unassigned) [Example 1057]
< 100 nM

Look up and report measured IC50 (baculovirus-expressed ALK (Homo sapiens)) for the following compound: COc1cc2c(cc1Nc1ncc(Cl)c(Nc3ccccc3S(=O)(=O)N3CCCC3)n1)CCN(CC(=O)N(C)C)CC2 [Example 1181]
< 100 nM

Look up and report measured IC50 (baculovirus-expressed ALK (Homo sapiens)) for the following compound: CNc1nc(OC)ccc1Nc1nc(Nc2cc3c(cc2OC)CCN(CC(=O)N(C)C)CC3)ncc1Cl [Example 1208]
< 100 nM

Look up and report measured IC50 (baculovirus-expressed ALK (Homo sapiens)) for the following compound: CCN1C(=O)[C@@H](N(C)C)CCc2c1ccc(Nc1ncc(Cl)c(N[C@H]3[C@@H](C(N)=O)[C@@H]4C=C[C@H]3C4)n1)c2OC (single isomer, unassigned) [Example 1347]
< 100 nM

Look up and report measured IC50 (baculovirus-expressed ALK (Homo sapiens)) for the following compound: CCN1C(=O)C(NC(=O)C(F)(F)F)CCc2c1ccc(Nc1ncc(Cl)c(Nc3ccccc3S(=O)(=O)N(C)C)n1)c2OC (stereo not shown) [Example 1334]
< 100 nM

Look up and report measured IC50 (baculovirus-expressed ALK (Homo sapiens)) for the following compound: CCOC(=O)N1CCCOc2cc(Nc3ncc(Cl)c(Nc4ccsc4C(=O)NC)n3)ccc21 [Example 1418]
100 to 1000 nM

Look up and report measured IC50 (baculovirus-expressed ALK (Homo sapiens)) for the following compound: CCNC(=O)c1cccc(F)c1Nc1nc(Nc2ccc3c(c2)CCN(CC(=O)N(C)C)CC3)ncc1Cl [Example 1367]
< 100 nM

Look up and report measured IC50 (baculovirus-expressed ALK (Homo sapiens)) for the following compound: CCN1C(=O)CCC(C)(C)c2ccc(Nc3ncc(Cl)c(Nc4ccccc4S(=O)(=O)C(C)C)n3)cc21 [Example 1243]
< 100 nM

Look up and report measured IC50 (baculovirus-expressed ALK (Homo sapiens)) for the following compound: CC(C)S(=O)(=O)c1cccc(F)c1Nc1nc(Nc2ccc3c(c2)NC(=O)CCC3)ncc1Cl [Example 1255]
100 to 1000 nM

Look up and report measured IC50 (baculovirus-expressed ALK (Homo sapiens)) for the following compound: CC1(C)CCC(=O)Nc2cc(Nc3ncc(Cl)c(Nc4ccccc4OCCC#N)n3)ccc21 [Example 1238]
< 100 nM

Look up and report measured IC50 (baculovirus-expressed ALK (Homo sapiens)) for the following compound: COCCOc1ccc(Nc2nc(Nc3cc4c(cc3OC)CCN(CC(=O)N(C)C)CC4)ncc2Cl)c(S(=O)(=O)C(C)C)c1 [Example 1189]
< 100 nM

Look up and report measured IC50 (baculovirus-expressed ALK (Homo sapiens)) for the following compound: CNC(=O)c1cccc(F)c1Nc1nc(Nc2ccc3c(c2)OCCCN3C(=O)OCCCN(C)C)ncc1Cl [Example 1426]
100 to 1000 nM

Look up and report measured IC50 (baculovirus-expressed ALK (Homo sapiens)) for the following compound: COc1cc2c(cc1Nc1ncc(Cl)c(NC3(C(=O)NCC#N)CC3)n1)CCN(CC(=O)N(C)C)CC2 [Example 1199]
100 to 1000 nM

Look up and report measured IC50 (baculovirus-expressed ALK (Homo sapiens)) for the following compound: CS(=O)(=O)c1cccc(F)c1Nc1nc(Nc2ccc3c(c2)NC(=O)CCC3)ncc1Cl [Example 1261]
1000 to 10000 nM

Look up and report measured IC50 (baculovirus-expressed ALK (Homo sapiens)) for the following compound: COc1cc2c(cc1Nc1ncc(Cl)c(Nc3cc(C#N)ccc3OC)n1)CCN(CC(N)=O)CC2 [Example 1154]
< 100 nM

Look up and report measured IC50 (baculovirus-expressed ALK (Homo sapiens)) for the following compound: COCCN1CCc2ccc(Nc3ncc(Cl)c(Nc4c(C)cccc4C(=O)NCC#N)n3)cc2CC1 [Example 1040]
100 to 1000 nM

Look up and report measured IC50 (baculovirus-expressed ALK (Homo sapiens)) for the following compound: COc1cc2c(cc1Nc1ncc(Cl)c(Nc3ccccc3S(=O)(=O)N(C)C)n1)CCN(CC(=O)N1CCCC1)CC2 [Example 1157]
< 100 nM

Look up and report measured IC50 (baculovirus-expressed ALK (Homo sapiens)) for the following compound: CN(C)C(=O)CN1CCc2ccc(Nc3ncc(Cl)c(N[C@@H]4CCCC[C@H]4NS(C)(=O)=O)n3)cc2CC1 [Example 1371]
< 100 nM

// data source = patent US8148391B2
